# TARGET: PPARβ (Homo sapiens, UniProt Q03181)
# Construct: 138-440 (NUC-1)
# Sequence (Q03181 138-440): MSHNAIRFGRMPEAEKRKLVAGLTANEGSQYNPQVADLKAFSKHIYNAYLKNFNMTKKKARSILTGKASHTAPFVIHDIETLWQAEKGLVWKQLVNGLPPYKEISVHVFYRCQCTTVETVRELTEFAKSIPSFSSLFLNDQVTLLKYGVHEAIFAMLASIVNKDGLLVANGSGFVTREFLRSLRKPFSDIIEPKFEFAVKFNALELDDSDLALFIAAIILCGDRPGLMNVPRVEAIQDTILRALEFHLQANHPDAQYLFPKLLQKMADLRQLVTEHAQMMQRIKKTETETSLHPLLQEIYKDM
# PROTOCOL DETAILS: Determination of transcriptional activity (GAL4-PPAR LBD chimera, PLAP reporter, CV-1 cells)
# DETAILS: GAL4-human NUC-1 LBD (138-440) chimera, PLAP activity 24 hours after addition of compound
pEC50: −log10 of the molar value.
PARAMETER: pEC50

These recorded examples may help you get a feel for the data.
Briefly, pEC50 measured for CCCOc1ccc(C(=O)NCc2cc(CC3(C(=O)O)C=CCO3)ccc2OC)c(Cl)c1 (stereo not drawn) : 6.11

Briefly, pEC50 measured for COc1ccc(CC2(C(=O)O)CCCO2)cc1CNC(=O)c1ccc(OC2CCCC2)cc1Cl (stereo not drawn) : 5.88

(I) CCCOc1ccc(C(=O)NCc2cc(CC3(C(=O)O)CCCO3)ccc2OC)c(Cl)c1 (stereo not drawn)
(II) CCCOc1ccc(C(=O)NCc2cc(CC3(C(=O)O)CCCO3)ccc2OCC)c(Cl)c1 (stereo not drawn)
(III) COc1ccc(CC2(C(=O)O)CCCO2)cc1CNC(=O)c1ccc(C2CCCCC2)cc1Cl (stereo not drawn)
(IV) CCOc1ccc(C(=O)NCc2cc(CC3(C(=O)O)CCCO3)ccc2OCC)c(Cl)c1 (stereo not drawn)
Q: Put the entries in order of pEC50, starting with the largest number. Your answer should be the labels, listed in the requested order.
Result: II, IV, I, III
